These measurements were taken from paper PMC10141580.

Would you mind telling me the reported NCI-60 screening: Log(RedIndex) of each entry?
test system: NCI-60 standardized human tumor cell line panel; assay: cells; assay type: cell-based; conditions: DU-145 (PR) cell line; log10 reductive index vs P-CC60
No unit in the answer, please; the number alone is enough.

IN: Recorded NCI-60 screening: Log(RedIndex) for COc1cc2cc(C(=O)N3C[C@@H](CCl)c4c3cc(OC(=O)N(CCC(=O)N3CCN(C)CC3)[C@H]3CCSSC3)c3ccccc43)[nH]c2c(OC)c1OC [P-SS60-CBI-TMI] , please?
OUT: 0.89

IN: Recorded NCI-60 screening: Log(RedIndex) for COc1cc2cc(C(=O)N3C[C@@H](CCl)c4c3cc(OC(=O)N3CCN(C(=O)CCC(=O)N5CCN(C)CC5)[C@H]5CSSC[C@H]53)c3ccccc43)[nH]c2c(OC)c1OC [P-SS66C-CBI-TMI] , please?
OUT: 1.27

IN: Recorded NCI-60 screening: Log(RedIndex) for COc1cc2cc(C(=O)N3CC(CCl)c4c3cc(OC(=O)N3CCN(C)C5CSSCC53)c3ccccc43)[nH]c2c(OC)c1OC (mixture of isomers) [Me-SS66C-CBI-TMI] , please?
OUT: 0.86

IN: Recorded NCI-60 screening: Log(RedIndex) for COc1cc2cc(C(=O)N3CC(CCl)c4c3cc(OC(=O)N3CCN(C)C5CSSCC53)c3ccccc43)[nH]c2c(OC)c1OC (mixture of isomers) [Me-SS66T-CBI-TMI] , please?
OUT: 2.12

* * *

tested on: NCI-60 standardized human tumor cell line panel; assay: cells; assay type: cell-based; conditions: cell line NCI-H23 (LC:NCI-H23); TMI sheet
observable: NCI-60 screening: Log(GI50)

IN: Recorded NCI-60 screening: Log(GI50) for COc1cc2cc(C(=O)N3C[C@@H](CCl)c4c3cc(OC(=O)N(CCC(=O)N3CCN(C)CC3)C3CCCCC3)c3ccccc43)[nH]c2c(OC)c1OC , please?
OUT: -6.33

IN: Recorded NCI-60 screening: Log(GI50) for COc1cc2cc(C(=O)N3C[C@@H](CCl)c4c3cc(OC(=O)N(CCC(=O)N3CCN(C)CC3)[C@H]3CCSSC3)c3ccccc43)[nH]c2c(OC)c1OC , please?
OUT: -7.26

IN: Recorded NCI-60 screening: Log(GI50) for COc1cc2cc(C(=O)N3CC(CCl)c4c3cc(OC(=O)N3CCN(C)C5CSSCC53)c3ccccc43)[nH]c2c(OC)c1OC (mixture of isomers) [Me-SS66C-CBI-TMI] , please?
OUT: -7.34

IN: Recorded NCI-60 screening: Log(GI50) for COc1cc2cc(C(=O)N3CC(CCl)c4c3cc(OC(=O)N3CCN(C)C5CSSCC53)c3ccccc43)[nH]c2c(OC)c1OC (mixture of isomers) [Me-SS66T-CBI-TMI] , please?
OUT: -8.02

* * *

System: panel of 140 standard cancer cell lines
Test: ProliFiler-140 cancer cell line screen (CellTiterGlo, 72 h)
Assay type: cell-based
Details: read-out: IC50 [M] (ProliFiler-140), PC3 (Prostate)
Protocol: Incubations were performed for 72 h before automated viability readout with CellTiterGlo (Figure 8). End of Figure S11 (part 5 of 5): ProliFiler-140 cancer cell line screening for cytotoxicity of the prodrugs. 8-data-point dose response curves from CellTiter-Glo® viability readout. ProliFiler-140 cell line panel part V
observable: IC50 (M)
Enter your answer as a number in M; do not include the unit.

IN: Recorded IC50 for COc1cc2cc(C(=O)N3C[C@@H](CCl)c4c3cc(OC(=O)N3CCN(C(=O)CCC(=O)N5CCN(C)CC5)[C@H]5CSSC[C@H]53)c3ccccc43)[nH]c2c(OC)c1OC [P-SS66C-CBI-TMI] , please?
OUT: 4.01e-08

* * *

system: panel of 140 standard cancer cell lines; assay: ProliFiler-140 cancer cell line screen (CellTiterGlo, 72 h); assay type: cell-based; conditions: Homo sapiens, 786-0, read-out: IC50 [M] (ProliFiler-140), 786-O (Kidney)
observable: IC50
Please give the number followed by its unit.

IN: Recorded IC50 for COc1cc2cc(C(=O)N3C[C@@H](CCl)c4c3cc(OC(=O)N3CCN(C(=O)CCC(=O)N5CCN(C)CC5)[C@H]5CSSC[C@H]53)c3ccccc43)[nH]c2c(OC)c1OC [P-SS66C-CBI-TMI] , please?
OUT: 2.86e-08 M

* * *

test system: panel of 140 standard cancer cell lines; experiment: ProliFiler-140 cancer cell line screen (CellTiterGlo, 72 h); format: cell-based; details: Homo sapiens, NCI-H1838, NCI-H1838 (Lung); read-out: IC50 [M] (ProliFiler-140)
observable: IC50 (M)
Enter your answer as a number in M; do not include the unit.

IN: Recorded IC50 for COc1cccc2c1C(=O)c1c(O)c3c(c(O)c1C2=O)C[C@@](O)(C(=O)CO)C[C@@H]3O[C@H]1C[C@H](N)[C@H](O)[C@H](C)O1 [doxorubicin, reference compound] , please?
OUT: 2.5e-07

* * *

tested on: NCI-60 standardized human tumor cell line panel; test: cells; format: cell-based; details: A498; read-out: GI50
Would you mind telling me the reported log10 GI50 of each entry?
Response schema: value (number) is log10 of GI50 in units of nM.

IN: Recorded log10 GI50 for COc1cc2cc(C(=O)N3C[C@@H](CCl)c4c3cc(OC(=O)N(CCC(=O)N3CCN(C)CC3)C3CCCCC3)c3ccccc43)[nH]c2c(OC)c1OC [P-CC60-CBI-TMI] , please?
OUT: 3.45

IN: Recorded log10 GI50 for COc1cc2cc(C(=O)N3C[C@@H](CCl)c4c3cc(OC(=O)N(C)CCSSCCN3CCOCC3)c3ccccc43)[nH]c2c(OC)c1OC [SS00M-CBI-TMI] , please?
OUT: 2.43

IN: Recorded log10 GI50 for COc1cc2cc(C(=O)N3C[C@@H](CCl)c4c3cc(OC(=O)N(CCC(=O)N3CCN(C)CC3)[C@H]3CCSSC3)c3ccccc43)[nH]c2c(OC)c1OC [P-SS60-CBI-TMI] , please?
OUT: 2.40

IN: Recorded log10 GI50 for COc1cc2cc(C(=O)N3CC(CCl)c4c3cc(OC(=O)N3CCN(C)C5CSSCC53)c3ccccc43)[nH]c2c(OC)c1OC (mixture of isomers) [Me-SS66C-CBI-TMI] , please?
OUT: 3.08

IN: Recorded log10 GI50 for COc1cc2cc(C(=O)N3CC(CCl)c4c3cc(OC(=O)N3CCN(C)C5CSSCC53)c3ccccc43)[nH]c2c(OC)c1OC (mixture of isomers) [Me-SS66T-CBI-TMI] , please?
OUT: 2.11

* * *

system: mouse; experiment: Tolerability for repeated dose administration in vivo (summary); settings: repeated dose administration
observable: remarks

Answered examples (4):
compound | tested_target | result
CN(C(=O)Oc1cc2c(c3ccccc13)[C@H](CCl)CN2C(=O)c1cc2cc(OCCCN3CCC3)ccc2[nH]1)[C@H]1CCSSC1 | mouse | adverse effects
COc1cc2cc(C(=O)N3CC(CCl)c4c3cc(OC(=O)N3CCN(C)C5CSSCC53)c3ccccc43)[nH]c2c(OC)c1OC (mixture of isomers) [Me-SS66C-CBI-TMI] | mouse | well tolerated
COc1cc2cc(C(=O)N3C[C@@H](CCl)c4c3cc(OC(=O)N(CCC(=O)N3CCN(C)CC3)C3CCCCC3)c3ccccc43)[nH]c2c(OC)c1OC | mouse | well tolerated
CN1CCN(C(=O)CCN(C(=O)Oc2cc3c(c4ccccc24)[C@H](CCl)CN3C(=O)c2cc3cc(OCCCN4CCC4)ccc3[nH]2)[C@H]2CCSSC2)CC1 | mouse | well tolerated

Then there is this compound:
IN: Recorded remarks for CN(C(=O)Oc1cc2c(c3ccccc13)[C@H](CCl)CN2C(=O)c1cc2cc(OCCCN3CCC3)ccc2[nH]1)[C@H]1CCS[Se]C1 , please?
OUT: adverse effects

* * *

test system: panel of 140 standard cancer cell lines; assay: ProliFiler-140 cancer cell line screen (CellTiterGlo, 72 h); assay type: cell-based; details: Homo sapiens, SK-BR-3, SK-BR-3 (Breast); read-out: IC50 [M] (ProliFiler-140)
observable: IC50 (M)
Enter your answer as a number in M; do not include the unit.

IN: Recorded IC50 for COc1cccc2c1C(=O)c1c(O)c3c(c(O)c1C2=O)C[C@@](O)(C(=O)CO)C[C@@H]3O[C@H]1C[C@H](N)[C@H](O)[C@H](C)O1 [doxorubicin, reference compound] , please?
OUT: 1.3e-07

* * *

system: NCI-60 standardized human tumor cell line panel; assay: cells; format: cell-based; conditions: NCI-H522; read-out: GI50
Lab note - cut at 300 nM for GI50: MET if strictly below, NOT MET if not.

IN: # check: GI50 < 300 nM for COc1cc2cc(C(=O)N3CC(CCl)c4c3cc(OC(=O)N3CCN(C)C5CSSCC53)c3ccccc43)[nH]c2c(OC)c1OC (mixture of isomers) [Me-SS66T-CBI-TMI]
OUT: MET

IN: # check: GI50 < 300 nM for COc1cc2cc(C(=O)N3C[C@@H](CCl)c4c3cc(OC(=O)N(CCC(=O)N3CCN(C)CC3)[C@H]3CCSSC3)c3ccccc43)[nH]c2c(OC)c1OC
OUT: MET

IN: # check: GI50 < 300 nM for COc1cc2cc(C(=O)N3C[C@@H](CCl)c4c3cc(OC(=O)N(C)CCSSCCN3CCOCC3)c3ccccc43)[nH]c2c(OC)c1OC [SS00M-CBI-TMI]
OUT: NOT MET

IN: # check: GI50 < 300 nM for COc1cc2cc(C(=O)N3CC(CCl)c4c3cc(OC(=O)N3CCN(C)C5CSSCC53)c3ccccc43)[nH]c2c(OC)c1OC (mixture of isomers) [Me-SS66C-CBI-TMI]
OUT: MET

IN: # check: GI50 < 300 nM for COc1cc2cc(C(=O)N3C[C@@H](CCl)c4c3cc(OC(=O)N(CCC(=O)N3CCN(C)CC3)C3CCCCC3)c3ccccc43)[nH]c2c(OC)c1OC
OUT: NOT MET
